# System: Salmonella typhimurium TA100
# assay-name: Reverse mutation test (Ames test), TA100
# Format: cell-based
# measurement-context: without S9mix
measured-parameter: Mutagenicity, TA100, Without addition of S9mix

| compound | value-observed |
| --- | --- |
| FCCOc1ccc(-c2cn3cc(I)ccc3n2)cc1 [Compound I-4] | Negative |
| FCCCOc1ccc(-c2cn3cc(I)ccc3n2)cc1 [Compound I-2] | Negative |
| FCCCOc1ccc(-c2cn3cc(Br)ccc3n2)cc1 [Compound I-1] | Negative |
| FCCCOc1ccc(-c2cn3cc(I)cnc3n2)cc1 [Compound I-5] | Negative |

---

# Test system: Salmonella typhimurium TA98 and TA100
# assay-name: Reverse mutation test (Ames test), overall judgment
# Type: cell-based
# measurement-context: TA98 and TA100, with and without S9mix

| molecule | Ames test judgment |
| --- | --- |
| FCCCOc1ccc(-c2cn3cc(Br)ccc3n2)cc1 [Compound I-1] | negative |
| FCCCOc1ccc(-c2cn3cc(I)ccc3n2)cc1 [Compound I-2] | negative |
| FCCOc1ccc(-c2cn3cc(I)ccc3n2)cc1 [Compound I-4] | negative |
| FCCCOc1ccc(-c2cn3cc(I)cnc3n2)cc1 [Compound I-5] | negative |

---

Please respond with reported pIC50 for every item in the list.
# target-system: amyloid (aggregated Aβ1-40) (Homo sapiens, UniProt P05067)
# Construct: Aβ1-40 (Peptide Institute, INC.) was dissolved in phosphate buffer (pH 7.4)
# Sequence (P05067 672-711 limits assumed): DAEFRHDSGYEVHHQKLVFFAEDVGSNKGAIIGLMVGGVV
# assay-name: Measurement of affinity with amyloid: inhibition of [125I]3′-I-BTA-0 binding
# measurement-context: [125I]3′-I-BTA-0 400 pmol/L, amyloid 1 μmol/L, 22° C., 3 hours
// pIC50: -log10(molar conc.)

Query: Suppose we examine the compound FCCOc1ccc(-c2cn3cc(I)ccc3n2)cc1 [Compound I-4] ; what pIC50 value has been reported?
Result: 9.05

Query: Suppose we examine the compound FCCCOc1ccc(-c2cn3cc(Br)ccc3n2)cc1 [Compound I-1] ; what pIC50 value has been reported?
Result: 8.85

Query: Suppose we examine the compound FCCCOc1ccc(-c2cn3cc(I)ccc3n2)cc1 [Compound I-2] ; what pIC50 value has been reported?
Result: 9.05

Query: Suppose we examine the compound FCCCOc1ccc(-c2cn3cc(I)cnc3n2)cc1 [Compound I-5] ; what pIC50 value has been reported?
Result: 7.26

Query: Suppose we examine the compound FCCOc1ccc(-c2cn3cc(Br)ccc3n2)cc1 [Compound I-3] ; what pIC50 value has been reported?
Result: 8.74

---

# Tested on: Salmonella typhimurium TA98
# assay-name: Reverse mutation test (Ames test), TA98
# Type: cell-based
# measurement-context: with S9mix
measured-parameter: Mutagenicity, TA98, With addition of S9mix

| smiles-record | target-system | value-observed |
| --- | --- | --- |
| FCCCOc1ccc(-c2cn3cc(Br)ccc3n2)cc1 | Salmonella typhimurium TA98 | Negative |
| FCCCOc1ccc(-c2cn3cc(I)cnc3n2)cc1 | Salmonella typhimurium TA98 | Negative |
| FCCCOc1ccc(-c2cn3cc(I)ccc3n2)cc1 | Salmonella typhimurium TA98 | Negative |
| FCCOc1ccc(-c2cn3cc(I)ccc3n2)cc1 | Salmonella typhimurium TA98 | Negative |
